# Test system: COLO 205 colon
# assayText: NCI-60 one-dose screen, 48 h (100 = growth as untreated, 0 = no growth, -100 = all killed)
# details: 10 µM
The panel holds about 83,000 compounds, 20% with a hit somewhere; the sample as a whole holds those more often. Active and inactive are the calls of the source. How the source made its calls: active means growth percent below 10; inactive means the rest.
What growth was measured for each of the following?

compound: CCN1CCN(c2ccc(NC(=O)Nc3ccc(-c4cc(C(=O)NC(C)C)c5ncccc5n4)cc3)cc2C(F)(F)F)CC1
growth: -78.2% (active)
--
compound: COc1ccc(-c2c(N)c(=O)n(C)c3ccccc23)cc1
growth: 103% (inactive)
--
compound: Nc1cccnc1/C=N/NC(=S)NCCNC(=O)c1ccc(-n2nc(-c3ccccc3O)nc2-c2ccccc2O)cc1
growth: 15.1% (inactive)
--
compound: CC(=O)c1cc(C(=O)c2ccc3c(c2)NC(=O)CO3)n2ccc3ccccc3c12
growth: 91.9% (inactive)

Below is a list of compounds. For each, state its recorded growth.
1. COc1ccc(NC(=O)Nc2ccc(OCC(=O)N=Nc3c(O)[nH]c4ccc([N+](=O)[O-])cc34)cc2)cc1
2. O=C(Nc1ccccc1)Nc1nc2ccccc2s1
3. C=CC(=O)Nc1ccc(C(=O)/C=C/c2ccc(N(C)CCF)cc2)c(O)c1
4. COc1ccccc1[C@H]1C(C(=O)c2ccc(Cl)cc2)C2(N[C@@H]1c1ccccc1)C(=O)Nc1ccccc12 (stereo partly specified)

Result:
1: 112% (inactive); 2: 50.8% (inactive); 3: -69.1% (active); 4: -88.2% (active)

* * *

# System: COLO 205 colon
# assayText: NCI-60 one-dose screen, 48 h (100 = growth as untreated, 0 = no growth, -100 = all killed)
# details: 10 µM
# Description: Cells are grown in 96 well plates and exposed to the test compound for 48 hours. Compounds are tested at a single concentration, which is 10^-5 M for most compounds. The reported endpoint is percent growth (GI% or GIPRCNT), where numbers from 0 - 100% represent growth inhibition, and numbers from -100% - 0 represent cell death. For example, a value of 40 represents 60% growth inhibition. A value of 0 means no net growth occurred over the course of the experiment. […]
About 83,000 compounds went through this panel and 20% of them were active in at least one assay; those are over-represented in the sample as a whole.
Outcome: TRUE for growth of at least 70%; FALSE for anything lower.

These solved cases illustrate the format of a correct answer.
compound: Cc1noc2c(Cc3ccccc3)nn(CC(=O)N/N=C/c3ccc(F)cc3)c(=O)c12
testedOn: COLO 205 colon
classification: TRUE
--
compound: COc1ccc(C=CC(=O)c2ccc(-n3c(C)nc4c(cnn4-c4ccccc4)c3=O)cc2)cc1
testedOn: COLO 205 colon
classification: TRUE
--
compound: CCCCCc1ccc(S(=O)(=O)Nc2cc(-c3csc(N(C)C(C)=O)n3)ccc2N2CCN(C)CC2)cc1
testedOn: COLO 205 colon
classification: FALSE
--
compound: CC(=O)Nc1ccc(-c2cn(-c3cccc(C(=O)Nc4cccc(OC(F)(F)F)c4)c3)nn2)cn1
testedOn: COLO 205 colon
classification: TRUE
--
compound: N#Cc1ccc(NC(=O)CSc2ccc(-c3ccc(Br)cc3)nn2)cc1
testedOn: COLO 205 colon
classification: TRUE
--
compound: Cn1cc(-c2cc(N)n3nc(-c4c[nH]c5ccc(Br)cc45)cc3n2)c2cccnc21
testedOn: COLO 205 colon
classification: FALSE
--
compound: O=C(CSc1nnc(-c2c[nH]c3ccccc23)n1-c1ccccc1)c1ccc(Br)cc1
testedOn: COLO 205 colon
classification: FALSE
--
compound: CCCn1c(=O)c2[nH]c(-c3ccc(OCc4nc5ccc(C(F)(F)F)cc5[nH]4)cc3)nc2n(CCC)c1=O
testedOn: COLO 205 colon
classification: FALSE

Task: Reported growth reaches at least 70% for `O=C(COc1ccc(NC(=O)Nc2ccc(Cl)cc2)cc1)N=Nc1c(O)[nH]c2ccc([N+](=O)[O-])cc12` ?
Result: FALSE

Task: Decide: growth of `CN1CCCN(Cc2ccc(C(=O)Nc3cccc(Nc4ccc5cc(O)ccc5n4)c3)cc2C(F)(F)F)CC1` >= 70%?
Result: FALSE

Task: In plain terms: is recorded growth at least 70% for `O=C(Cn1nc(-c2ccccc2)ccc1=O)NNC(=S)NC1CCCCC1` ?
Result: TRUE

Task: Assess whether reported growth for `CCCn1c(=O)c2[nH]c(-c3ccc(OCc4nc5ccc(F)cc5[nH]4)cc3)nc2n(CCC)c1=O` sits at 70% or higher.
Result: FALSE

Task: Quick check: does `O/N=C(\CSc1nnc(-c2c[nH]c3ccccc23)n1-c1ccccc1)c1ccc(Br)cc1` have growth greater than or equal to 70%?
Result: FALSE

Task: Is growth for `N#Cc1c(Cl)nc(SCc2ccc(F)cc2)nc1-c1ccc(F)cc1` at or above 70%?
Result: TRUE

Task: # bool: growth of COc1cc2c(c(OC)c1OC)C(=O)CC(c1cccc(NC(=O)c3cccc(N)c3)c1)O2 (stereo unspecified) >= 70%
Result: TRUE

Task: Textbook exercise: given the entry `O=C(CSc1nnc(-c2ccc3nc(-c4ccccc4)[nH]c3c2)o1)Nc1ccc(Br)cc1` , state whether its growth is greater than or equal to 70%.
Result: TRUE

Task: Quick check, growth >= 70%? `C=C1CC[C@H](C(=C)C)[C@H]2C=C(C)C(=O)C3=C(C(=O)[C@@](C)(O)C3)[C@H]12`
Result: FALSE

Task: State whether the measured growth reaches 70%, counting equality as reaching it, for `COc1ccc(OC)c(-c2cc(-c3c[nH]c4ccccc34)nc(N)c2C#N)c1`
Result: FALSE

Task: Has `COc1cnc2c(c1)C(=O)c1c-2n(CCCNCCO)c(=O)c2cc(OC)c(OC)cc12` a recorded growth greater than or equal to 70%?
Result: FALSE

Task: Identify whether the reported growth of the following compound is 70% or greater: `CC(=O)Nc1ccc(-c2cn(-c3cccc(C(=O)Nc4cc(CN5CCOCC5)cc(C(F)(F)F)c4)c3)nn2)cn1`
Result: FALSE

Task: Answer whether growth of `O=C1Nc2ccc(Cl)cc2/C1=C/c1cccc(OCc2ccccc2)c1` is greater than or equal to 70%.
Result: FALSE

Task: Please tell me: is the compound `COc1ccc(CCN2C(=O)/C(=C/c3csc(C#N)n3)SC2=S)cc1OC` at or over 70% in terms of growth?
Result: FALSE

Task: Could you tell me if the measured growth of O=C(Cc1ccc2c(c1)CN(C1CCC(=O)NC1=O)C2=O)NCc1cccc2ccccc12 (stereo unspecified) reaches 70% or more?
Result: FALSE

Task: Form field: growth at least 70%? Entry: `COc1ccc(/C=C/C(=O)c2ccc(N3CCN(C)CC3)cc2)c(C(F)(F)F)c1`
Result: FALSE

Task: Dear colleague, could you confirm whether `N#Cc1c(-c2ccc(F)cc2)nc(SCc2ccc([N+](=O)[O-])cc2)nc1N1CCOCC1` has growth at or above 70%?
Result: TRUE

* * *

Provide the recorded growth for the entries that follow.
# System: HOP-92 NSCLC
# assayText: NCI-60 one-dose screen, 48 h (100 = growth as untreated, 0 = no growth, -100 = all killed)
# details: 10 µM
# Method: Growth inhibition of the HOP-92 human Non-Small Cell Lung tumor cell line is measured as a screen for anti-cancer activity. Cells are grown in 96 well plates and exposed to the test compound for 48 hours. Compounds are tested at a single concentration, which is 10^-5 M for most compounds. The reported endpoint is percent growth (GI% or GIPRCNT), where numbers from 0 - 100% represent growth inhibition, and numbers from -100% - 0 represent cell death. […]
Compounds without any hit were thinned out: in the full panel of roughly 83,000, 20% have a hit.
Answers are plain numbers, in %.

compound: CN(C)c1nc(NCCNS(=O)(=O)c2ccc(C(=O)/C=C/c3ccccc3)cc2)nc(Nc2ccc(F)cc2)n1
u: %
growth: -12.1

compound: CC(=O)NNc1ccc2nnc(-c3ccc(Br)cc3)n2n1
u: %
growth: 103

compound: O=C(COc1ccc(NC(=O)Nc2ccc(Cl)cc2)cc1)N=Nc1c(O)[nH]c2ccc([N+](=O)[O-])cc12
u: %
growth: -36.2

compound: COc1ccc(CN2[C@@H](C(=O)NCc3ccc(C(=O)NO)cc3)Cc3c([nH]c4ccccc34)[C@@H]2C2CC2)cc1
u: %
growth: -3.87

compound: Cc1ccc2nc(COc3ccc(C(=O)NNC(=S)NC(=O)c4ccccc4)cc3)[nH]c2c1
u: %
growth: 80.6

Hello, I would appreciate it if you could give growth for each entry below.
1. O=C(Nc1ccc(I)cc1)Nc1nc2ccc([N+](=O)[O-])cc2s1
2. CN1C/C(=C\c2ccc(O)cc2O)c2[o+]c3cc(O)ccc3cc2C1
3. O=C(Cn1nc(-c2ccccc2)ccc1=O)NN1C(=O)c2ccccc2C1=O

Result:
1. -87.9
2. 58.8
3. 125
